Entry source: patent US20210246166A1

Molecular target: recombinant rat MASP2 active protease (amino acids 296-685, C-terminal His Tag) (rat, UniProt Q9JJS8 296-685)
Sequence (Q9JJS8 other isoform, or with tags, fused parts or gaps limits assumed): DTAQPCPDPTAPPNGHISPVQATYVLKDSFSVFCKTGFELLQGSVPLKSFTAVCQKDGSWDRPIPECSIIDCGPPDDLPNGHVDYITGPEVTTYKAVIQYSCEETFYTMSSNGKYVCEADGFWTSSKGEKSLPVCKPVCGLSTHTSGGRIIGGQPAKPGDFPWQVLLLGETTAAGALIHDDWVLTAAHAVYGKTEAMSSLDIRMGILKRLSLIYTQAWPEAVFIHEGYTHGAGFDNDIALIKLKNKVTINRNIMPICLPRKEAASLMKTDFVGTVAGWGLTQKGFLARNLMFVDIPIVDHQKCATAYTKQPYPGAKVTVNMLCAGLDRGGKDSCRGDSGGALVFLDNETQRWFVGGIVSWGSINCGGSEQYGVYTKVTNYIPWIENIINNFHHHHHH
Assay: cell-based or functional assay
Bridge positions count the residues as written; N and C are the ends. Square brackets hold non-standard residues; d marks the D form. * marks the point of attachment. Benzoyl(3-COOH) = O=C(O)c1cccc(C(=O)*)c1; Oic = O=C(O)[C@@H]1C[C@@H]2CCCC[C@@H]2N1; Pen = CC(C)(S)[C@H](N)C(=O)O
MEASURED_METRIC: rat MASP2 IC50 (nM)
Entry rule: numbers only, all in nM.

// lookup rat MASP2 IC50 for {Benzoyl(3-COOH)}-GICSRSLP[Oic]I[Pen]IPD-OH (disulfide 3-11; SMILES CC[C@H](C)[C@H](NC(=O)CNC(=O)c1cccc(C(=O)O)c1)C(=O)N[C@H]1CSSC(C)(C)[C@@H](C(=O)N[C@H](C(=O)N2CCC[C@H]2C(=O)N[C@@H](CC(=O)O)C(=O)O)[C@@H](C)CC)NC(=O)[C@H]([C@@H](C)CC)NC(=O)[C@@H]2C[C@@H]3CCCC[C@@H]3N2C(=O)[C@@H]2CCCN2C(=O)[C@H](CC(C)C)NC(=O)[C@H](CO)NC(=O)[C@H](CCCNC(=N)N)NC(=O)[C@H](CO)NC1=O) [Example 491: (3-Carboxybenzoic acid)-GIC+SRSLP-(Oic)-I-(Pen)+IPD-OH]
23
